Recorded melting point by entry
Where a name gives a salt, the structure may show the parent alone.

>>> observed_result("COc1ccc2[nH]cc(C3CC(=O)N(CCCN4CC=C(c5c[nH]c6ncccc56)CC4)C3=O)c2c1 (stereo not drawn) (as salt: hydrochloride) [Compound 8]")
"111 to 115 °C"

Which measured melting point value corresponds to O=C1CC(c2c[nH]c3ccccc23)C(=O)N1CCCN1CC=C(c2c[nH]c3ncccc23)CC1 (stereo not drawn) (as salt: hydrochloride) [Compound 5] ?
97 to 102 °C

Could you share which melting point value was measured for O=C1CC(c2c[nH]c3ccc(F)cc23)C(=O)N1CCCCN1CC=C(c2c[nH]c3ncccc23)CC1 (stereo not drawn) (as salt: hydrochloride) [Compound 10] ?
98 to 102 °C

Dear colleague, I am looking for the recorded melting point of the following compound: O=C1CC(c2c[nH]c3ccccc23)C(=O)N1CCN1CC=C(c2c[nH]c3ncccc23)CC1 (stereo not drawn) (as salt: hydrochloride) [Compound 6]
233 to 235 °C

Which melting point reading was recorded for the compound COc1ccc2[nH]cc(C3CC(=O)N(CCCCN4CC=C(c5c[nH]c6ncccc56)CC4)C3=O)c2c1 (stereo not drawn) (as salt: hydrochloride) [Compound 7] ?
140 to 144 °C

I'd like to know its melting point. The compound in question is O=C1CC(c2c[nH]c3ccc(F)cc23)C(=O)N1CCN1CC=C(c2c[nH]c3ncccc23)CC1 (stereo not drawn) (as salt: hydrochloride) [Compound 12]
250 to 252 °C

Consider the compound COc1ccc2[nH]cc(C3CC(=O)N(CCN4CC=C(c5c[nH]c6ncccc56)CC4)C3=O)c2c1 (stereo not drawn) (as salt: hydrochloride) [Compound 9] and give its measured melting point.
129 to 132 °C

Using the record for O=C1CC(c2c[nH]c3ccccc23)C(=O)N1CCCCN1CC=C(c2c[nH]c3ncccc23)CC1 (stereo not drawn) (as salt: hydrochloride) [Compound 4] , report its melting point.
172 to 177 °C

# query: melting point of entry O=C1CC(c2c[nH]c3ccc(F)cc23)C(=O)N1CCCN1CC=C(c2c[nH]c3ncccc23)CC1 (stereo not drawn) (as salt: hydrochloride) [Compound 11]
147 to 150 °C

====

Below, each of the molecules is paired with its reported pKi value.
# TARGET_ENTITY: human 5-HT1A receptor (Homo sapiens, UniProt P08908)
# Construct: purchased PerkinElmer; host or cells: CHO-K1
# Sequence (P08908 whole entry): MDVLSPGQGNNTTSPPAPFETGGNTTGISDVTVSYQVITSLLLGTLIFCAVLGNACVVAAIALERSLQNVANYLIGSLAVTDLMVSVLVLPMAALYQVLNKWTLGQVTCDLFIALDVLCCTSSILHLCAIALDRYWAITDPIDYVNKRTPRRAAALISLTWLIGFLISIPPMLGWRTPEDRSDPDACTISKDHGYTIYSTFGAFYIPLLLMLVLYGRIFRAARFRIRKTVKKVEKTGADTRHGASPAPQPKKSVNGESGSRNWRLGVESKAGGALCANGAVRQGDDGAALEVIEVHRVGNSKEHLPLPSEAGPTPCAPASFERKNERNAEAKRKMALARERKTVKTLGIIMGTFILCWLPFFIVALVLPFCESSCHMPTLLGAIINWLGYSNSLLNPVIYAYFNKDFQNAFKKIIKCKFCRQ
# ASSAY_DETAILS: 5-HT1A receptor radioligand binding ([3H]-8-OH-DPAT, CHO-K1 membranes)
# RUN_CONDITIONS: displacement of [3H]-8-OH-DPAT, mean ± SEM of three experiments, NC = not converged
// returns pKi (minus log10 of molar concentration), number only

// worked examples, pKi included
>>> observed_result("O=C1CC(c2c[nH]c3ccc(F)cc23)C(=O)N1CCCN1CC=C(c2c[nH]c3ncccc23)CC1 (centres unmarked)")
6.89
>>> observed_result("O=C1CC(c2c[nH]c3ccccc23)C(=O)N1CCCN1CC=C(c2c[nH]c3ncccc23)CC1 (centres unmarked)")
5.61
>>> observed_result("O=C1CC(c2c[nH]c3ccc(F)cc23)C(=O)N1CCCCN1CC=C(c2c[nH]c3ncccc23)CC1 (centres unmarked)")
6.89
>>> observed_result("O=C1CC(c2c[nH]c3ccccc23)C(=O)N1CCCCN1CC=C(c2c[nH]c3ncccc23)CC1 (centres unmarked)")
6.18

Now take the following molecule into account.
Recorded pKi of COc1ccc2[nH]cc(C3CC(=O)N(CCCCN4CC=C(c5c[nH]c6ncccc56)CC4)C3=O)c2c1 (centres unmarked) , please.
6.08

====

As a worked illustration, we turn to Ki data collected for UniProt:P50406.
Sequence (P50406 whole entry): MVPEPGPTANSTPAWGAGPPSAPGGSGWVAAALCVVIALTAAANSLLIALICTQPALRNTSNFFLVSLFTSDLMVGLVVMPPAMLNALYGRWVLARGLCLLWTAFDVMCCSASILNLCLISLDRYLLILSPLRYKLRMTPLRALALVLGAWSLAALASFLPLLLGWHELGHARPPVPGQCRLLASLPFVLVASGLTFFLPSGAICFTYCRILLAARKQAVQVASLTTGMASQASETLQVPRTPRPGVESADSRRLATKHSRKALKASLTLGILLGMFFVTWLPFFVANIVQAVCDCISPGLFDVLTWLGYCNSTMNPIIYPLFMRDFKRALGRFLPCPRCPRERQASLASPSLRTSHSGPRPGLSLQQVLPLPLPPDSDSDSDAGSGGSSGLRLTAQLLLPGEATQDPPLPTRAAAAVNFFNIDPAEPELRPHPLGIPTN
Numeric only. Scale: nM

>>> observed_result("O=C1CC(c2c[nH]c3ccccc23)C(=O)N1CCCCN1CC=C(c2c[nH]c3ncccc23)CC1 (stereo not drawn) [Compound 4]")
1690
>>> observed_result("O=C1CC(c2c[nH]c3ccc(F)cc23)C(=O)N1CCCN1CC=C(c2c[nH]c3ncccc23)CC1 (stereo not drawn) [Compound 11]")
1290

What value of Ki on UniProt:P50406 does COc1ccc2[nH]cc(C3CC(=O)N(CCCN4CC=C(c5c[nH]c6ncccc56)CC4)C3=O)c2c1 (stereo not drawn) [Compound 8] have?
2970

====

# TARGET_ENTITY: UniProt:Q01959
# ASSAY_DETAILS: DAT binding assay ([3H]-WIN 35,428, CHO-K1 membranes)
# RUN_CONDITIONS: ratio of Ki values
MEASUREMENT_TYPE: Selectivity Ratio hDAT/hSERT
Give only the figure.

Below, each entry is followed by its recorded Selectivity Ratio hDAT/hSERT result.
>>> observed_result("O=C1CC(c2c[nH]c3ccc(F)cc23)C(=O)N1CCN1CC=C(c2c[nH]c3ncccc23)CC1 (stereo not shown)")
0.9
>>> observed_result("O=C1CC(c2c[nH]c3ccc(F)cc23)C(=O)N1CCCN1CC=C(c2c[nH]c3ncccc23)CC1 (stereo not shown)")
31.3
>>> observed_result("COc1ccc2[nH]cc(C3CC(=O)N(CCN4CC=C(c5c[nH]c6ncccc56)CC4)C3=O)c2c1 (stereo not shown)")
3.6

Form entry - test system: UniProt:Q01959; read-out: Selectivity Ratio hDAT/hSERT; compound: O=C1CC(c2c[nH]c3ccccc23)C(=O)N1CCN1CC=C(c2c[nH]c3ncccc23)CC1 (stereo not shown)
3.7

====

# TARGET_ENTITY: human norepinephrine transporter (Homo sapiens, UniProt P23975)
# Sequence (P23975 whole entry): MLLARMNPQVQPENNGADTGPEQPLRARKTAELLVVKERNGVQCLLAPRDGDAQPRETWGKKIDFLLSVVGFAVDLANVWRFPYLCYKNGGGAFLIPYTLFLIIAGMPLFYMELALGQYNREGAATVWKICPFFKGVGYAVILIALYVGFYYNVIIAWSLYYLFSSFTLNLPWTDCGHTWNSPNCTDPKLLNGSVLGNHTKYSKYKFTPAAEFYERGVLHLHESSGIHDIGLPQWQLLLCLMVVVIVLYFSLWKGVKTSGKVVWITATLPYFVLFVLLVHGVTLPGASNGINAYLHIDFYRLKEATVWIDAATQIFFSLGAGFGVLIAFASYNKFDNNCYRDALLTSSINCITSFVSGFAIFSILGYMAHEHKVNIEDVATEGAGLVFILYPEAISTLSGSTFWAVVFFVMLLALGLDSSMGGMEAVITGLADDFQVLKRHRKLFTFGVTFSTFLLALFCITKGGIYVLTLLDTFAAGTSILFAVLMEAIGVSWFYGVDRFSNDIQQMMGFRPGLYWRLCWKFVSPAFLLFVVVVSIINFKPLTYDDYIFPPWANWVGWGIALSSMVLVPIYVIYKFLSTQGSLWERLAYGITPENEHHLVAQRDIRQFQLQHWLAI
# ASSAY_DETAILS: NET binding assay ([3H]-nisoxetine, MDCK membranes)
# RUN_CONDITIONS: at 1 µM
Marks after values point to notes of the source that are not given here.
MEASUREMENT_TYPE: hNET screening procedure, displacement %
Please answer in the form of a number followed by its unit of measurement.

Here is how some compounds turned out for hNET screening procedure, displacement %.
>>> observed_result("COc1ccc2[nH]cc(C3CC(=O)N(CCN4CC=C(c5c[nH]c6ncccc56)CC4)C3=O)c2c1 (stereo not shown)")
"41% ^a"
>>> observed_result("O=C1CC(c2c[nH]c3ccc(F)cc23)C(=O)N1CCN1CC=C(c2c[nH]c3ncccc23)CC1 (stereo not shown)")
"42% ^a"
>>> observed_result("COc1ccc2[nH]cc(C3CC(=O)N(CCCN4CC=C(c5c[nH]c6ncccc56)CC4)C3=O)c2c1 (stereo not shown)")
"43% ^a"

Look at this compound and give its reported hNET screening procedure, displacement %. O=C1CC(c2c[nH]c3ccccc23)C(=O)N1CCN1CC=C(c2c[nH]c3ncccc23)CC1 (stereo not shown)
37% ^a

====

# TARGET_ENTITY: 5-HT2A receptor (Rattus norvegicus, UniProt P14842)
# Sequence (P14842 whole entry): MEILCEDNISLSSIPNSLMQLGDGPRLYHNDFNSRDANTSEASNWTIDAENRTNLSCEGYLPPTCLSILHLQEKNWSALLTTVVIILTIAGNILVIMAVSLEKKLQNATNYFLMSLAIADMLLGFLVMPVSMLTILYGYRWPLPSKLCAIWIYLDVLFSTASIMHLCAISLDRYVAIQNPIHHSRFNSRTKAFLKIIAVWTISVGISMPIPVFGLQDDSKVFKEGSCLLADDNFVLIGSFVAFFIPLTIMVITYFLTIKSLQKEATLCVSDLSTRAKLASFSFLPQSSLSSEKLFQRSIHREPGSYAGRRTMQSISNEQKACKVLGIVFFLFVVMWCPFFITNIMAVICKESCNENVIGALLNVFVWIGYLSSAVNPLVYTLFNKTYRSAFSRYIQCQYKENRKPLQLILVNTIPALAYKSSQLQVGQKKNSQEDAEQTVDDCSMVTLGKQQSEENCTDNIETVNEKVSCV
MEASUREMENT_TYPE: pKi
Scale note: pKi = -log10(concentration in M).

For 5-HT2A receptor (Rattus norvegicus, UniProt P14842), provide pKi of O=C1CC(c2c[nH]c3ccc(F)cc23)C(=O)N1CCCN1CC=C(c2c[nH]c3ncccc23)CC1 (stereo not drawn) [Compound 11] please.
5.94

Lab request: please report pKi under test system 5-HT2A receptor (Rattus norvegicus, UniProt P14842) for O=C1CC(c2c[nH]c3ccccc23)C(=O)N1CCCCN1CC=C(c2c[nH]c3ncccc23)CC1 (stereo not drawn) [Compound 4]
5.85

5-HT2A receptor (Rattus norvegicus, UniProt P14842) / pKi / COc1ccc2[nH]cc(C3CC(=O)N(CCCN4CC=C(c5c[nH]c6ncccc56)CC4)C3=O)c2c1 (stereo not drawn) [Compound 8] : value?
6.14

====

# TARGET_ENTITY: UniProt:P23975
MEASUREMENT_TYPE: Ki (nM)
Respond with the bare value in nM.

Missing value: Ki, UniProt:P23975, entry O=C1CC(c2c[nH]c3ccccc23)C(=O)N1CCCCN1CC=C(c2c[nH]c3ncccc23)CC1 (stereo not shown) . Fill in?
167

====

# TARGET_ENTITY: human dopamine transporter (Homo sapiens)
# Sequence (Q01959 whole entry): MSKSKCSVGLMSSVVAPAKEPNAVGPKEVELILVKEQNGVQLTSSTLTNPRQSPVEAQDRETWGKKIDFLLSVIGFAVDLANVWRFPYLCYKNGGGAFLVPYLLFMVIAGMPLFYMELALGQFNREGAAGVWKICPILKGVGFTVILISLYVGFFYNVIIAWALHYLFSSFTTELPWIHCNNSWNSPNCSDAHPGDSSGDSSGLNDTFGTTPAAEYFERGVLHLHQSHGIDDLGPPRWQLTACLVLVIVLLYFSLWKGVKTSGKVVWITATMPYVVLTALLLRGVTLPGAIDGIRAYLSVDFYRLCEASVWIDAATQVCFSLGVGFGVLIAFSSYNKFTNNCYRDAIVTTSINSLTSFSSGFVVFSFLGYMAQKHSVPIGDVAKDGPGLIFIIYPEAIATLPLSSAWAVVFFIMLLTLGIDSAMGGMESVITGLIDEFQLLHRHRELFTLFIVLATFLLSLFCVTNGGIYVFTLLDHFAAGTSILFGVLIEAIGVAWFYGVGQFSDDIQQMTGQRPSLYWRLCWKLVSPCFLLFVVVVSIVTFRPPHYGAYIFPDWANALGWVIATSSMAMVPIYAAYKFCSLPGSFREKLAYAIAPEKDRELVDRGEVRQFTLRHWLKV
MEASUREMENT_TYPE: pKi
Just the number, please; pKi means minus log10 of the concentration in mol/L.

>>> observed_result("COc1ccc2[nH]cc(C3CC(=O)N(CCCN4CC=C(c5c[nH]c6ncccc56)CC4)C3=O)c2c1 (centres unmarked)")
6.18
>>> observed_result("O=C1CC(c2c[nH]c3ccc(F)cc23)C(=O)N1CCN1CC=C(c2c[nH]c3ncccc23)CC1 (centres unmarked)")
6.64
>>> observed_result("COc1ccc2[nH]cc(C3CC(=O)N(CCN4CC=C(c5c[nH]c6ncccc56)CC4)C3=O)c2c1 (centres unmarked)")
6.47
>>> observed_result("O=C1CC(c2c[nH]c3ccc(F)cc23)C(=O)N1CCCN1CC=C(c2c[nH]c3ncccc23)CC1 (centres unmarked)")
6.54

Lab note: next compound to report on.
Look up pKi: O=C1CC(c2c[nH]c3ccccc23)C(=O)N1CCN1CC=C(c2c[nH]c3ncccc23)CC1 (centres unmarked)
6.04
